These data points were gathered from PubChem BioAssay (NCATS).

biological target: Rap guanine nucleotide exchange factor 3 (Homo sapiens) (UniProt O95398); experiment: Counterscreen qHTS for antagonist of cAMP-regulated guanine nucleotide exchange factor 3 (EPAC1) (AID 1645888); details: Rap1B-BODIPY-GDP nucleotide exchange, fluorescence; series mostly up to 154 µM;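 also: fluorescence loss as bound BODIPY-GDP is released from Rap1B; % of control where 0% means no effect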
Sequence (O95398 whole entry, looked up): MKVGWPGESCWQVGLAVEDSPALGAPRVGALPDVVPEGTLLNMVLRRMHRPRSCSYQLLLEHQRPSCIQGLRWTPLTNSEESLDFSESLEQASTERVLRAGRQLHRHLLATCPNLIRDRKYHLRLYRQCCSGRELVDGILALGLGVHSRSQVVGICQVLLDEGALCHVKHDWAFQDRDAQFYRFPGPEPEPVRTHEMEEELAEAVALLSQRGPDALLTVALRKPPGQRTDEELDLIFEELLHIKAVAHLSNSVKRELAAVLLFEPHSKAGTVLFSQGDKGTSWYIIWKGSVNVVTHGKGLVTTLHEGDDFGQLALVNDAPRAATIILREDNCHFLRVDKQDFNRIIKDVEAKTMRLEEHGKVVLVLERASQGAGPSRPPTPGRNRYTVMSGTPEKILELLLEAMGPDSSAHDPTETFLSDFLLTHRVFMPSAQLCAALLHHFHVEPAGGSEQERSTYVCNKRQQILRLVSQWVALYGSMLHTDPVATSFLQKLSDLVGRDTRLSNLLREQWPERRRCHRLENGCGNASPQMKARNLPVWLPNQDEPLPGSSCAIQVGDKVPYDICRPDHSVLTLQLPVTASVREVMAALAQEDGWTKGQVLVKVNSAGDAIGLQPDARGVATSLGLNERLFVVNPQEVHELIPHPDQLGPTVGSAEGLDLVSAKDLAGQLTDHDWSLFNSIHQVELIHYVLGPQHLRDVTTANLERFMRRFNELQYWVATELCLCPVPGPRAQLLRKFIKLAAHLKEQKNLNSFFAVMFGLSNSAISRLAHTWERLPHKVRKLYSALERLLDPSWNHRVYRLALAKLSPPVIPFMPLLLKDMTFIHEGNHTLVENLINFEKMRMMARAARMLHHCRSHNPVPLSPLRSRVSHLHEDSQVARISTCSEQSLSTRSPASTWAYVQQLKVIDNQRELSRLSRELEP
Inconclusive results are not listed. Calls of active or inactive are those of the source. Calls follow the shape of the dose curve; as a rule, active = well fitted inhibition curve with a large enough effect; inconclusive = small, poorly fitted or top-dose-only effect; inactive = no such curve, though single readings can be large or run the other way.
attribute.measured: activity change, negative = inhibition

Examples with their reported activity change, negative = inhibition follow.
1) C=CCn1c(Cc2ccccc2)nc2c(cnn2-c2ccccc2)c1=O
inactive
2) O=c1[nH]cc(N=Cc2cc(Cl)cc(Cl)c2O)c(=O)[nH]1
inactive
3) COc1cccc(/C=N/NC(=O)c2[nH]nc3c2CCc2ccccc2-3)c1O
inactive
4) O=C(CCn1cnc2onc(-c3ccc(F)cc3)c2c1=O)Nc1ccc(F)c(Cl)c1
inactive
5) CNc1ccc(-c2nc(-c3ccco3)no2)cc1[N+](=O)[O-]
inactive
6) CCOc1ccccc1NC(=O)C1CCN(c2nc(-c3ccc(OC)cc3)no2)CC1
-14.4% [at 30.8 µM] (inactive)
7) COc1ccc(S(=O)(=O)NC(=O)C2(C)CCN2C(=O)C2(c3ccccc3)CCCC2)cc1 (stereo unspecified)
-2.65% [at 30.8 µM] (inactive)
8) O=C(/C=C/c1ccco1)N1CCCC(c2ccccc2)C1 (stereo unspecified)
inactive
9) COc1ccccc1-c1nnc(SCC(=O)c2ccc(C3CCCCC3)cc2)n1Cc1ccco1
inactive
10) O=C(O)c1ccn2c(C(=O)c3ccc(Cl)cc3)c(-c3ccccc3)cc2c1
inactive

Dear reader, for each entry below, please note its activity change, negative = inhibition.
1. O=C(NN=Cc1c(O)ccc2ccccc12)c1ccncc1
2. COc1ccc(-n2nnnc2C(c2ccccc2OC(F)(F)F)N2CCN(C/C=C/c3ccccc3)CC2)cc1 (stereo unspecified)
3. CCc1ccc(NC(=O)COC(=O)CCC2CCCC2)cc1
4. Fc1ccc2c(-c3cccc(C(F)(F)F)c3)c(-c3ccccc3)ncc2c1
5. CCN1C(=O)/C(=C/c2ccc(OCc3ccc(C(=O)O)cc3)c(Cl)c2)NC1=S
6. COC(=O)c1ccccc1NC(=O)Cn1nc(C(F)(F)F)c2c1CCCC2
7. COc1cc(/C=C2/C(=O)NN(c3ccc(Cl)c(Cl)c3)C2=O)cc([N+](=O)[O-])c1O
8. CC1=C(CO)C(=O)OC([C@@H](C)C2CC[C@H]3C4C[C@H]5O[C@]56[C@@H](O)C=CC(=O)[C@]6(C)C4CC[C@]23C)C1 (stereo partly specified)

1: 4.58% [at 30.8 µM] (inactive); 2: inactive; 3: inactive; 4: inactive; 5: inactive; 6: inactive; 7: inactive; 8: inactive

Lab note: each molecule below needs its activity change, negative = inhibition filled in.
1. CCOC(=O)C1=C(C)N=c2s/c(=C/c3cccc([N+](=O)[O-])c3O)c(=O)n2C1c1ccccc1 (stereo unspecified)
2. O=C(Nc1ccccc1OCc1ccccc1)c1ccccc1Br
3. COc1cc(/C=C(\C#N)c2nc3ccc(C)cc3[nH]2)cc([N+](=O)[O-])c1O
4. C=CCOc1ccc(/C=N/NC(C)=O)cc1OCC
5. [O-][n+]1c2ccccc2[n+]([O-])c2cc(O)ccc21

inactive
inactive
inactive
inactive
inactive
